Give measured log10(IC50) for each item. Keep answers brief.
system-name: Epidermal growth factor receptor (Homo sapiens, UniProt P00533, EX19DEL/T790M)
Sequence (P00533 whole entry, looked up, stated change not applied): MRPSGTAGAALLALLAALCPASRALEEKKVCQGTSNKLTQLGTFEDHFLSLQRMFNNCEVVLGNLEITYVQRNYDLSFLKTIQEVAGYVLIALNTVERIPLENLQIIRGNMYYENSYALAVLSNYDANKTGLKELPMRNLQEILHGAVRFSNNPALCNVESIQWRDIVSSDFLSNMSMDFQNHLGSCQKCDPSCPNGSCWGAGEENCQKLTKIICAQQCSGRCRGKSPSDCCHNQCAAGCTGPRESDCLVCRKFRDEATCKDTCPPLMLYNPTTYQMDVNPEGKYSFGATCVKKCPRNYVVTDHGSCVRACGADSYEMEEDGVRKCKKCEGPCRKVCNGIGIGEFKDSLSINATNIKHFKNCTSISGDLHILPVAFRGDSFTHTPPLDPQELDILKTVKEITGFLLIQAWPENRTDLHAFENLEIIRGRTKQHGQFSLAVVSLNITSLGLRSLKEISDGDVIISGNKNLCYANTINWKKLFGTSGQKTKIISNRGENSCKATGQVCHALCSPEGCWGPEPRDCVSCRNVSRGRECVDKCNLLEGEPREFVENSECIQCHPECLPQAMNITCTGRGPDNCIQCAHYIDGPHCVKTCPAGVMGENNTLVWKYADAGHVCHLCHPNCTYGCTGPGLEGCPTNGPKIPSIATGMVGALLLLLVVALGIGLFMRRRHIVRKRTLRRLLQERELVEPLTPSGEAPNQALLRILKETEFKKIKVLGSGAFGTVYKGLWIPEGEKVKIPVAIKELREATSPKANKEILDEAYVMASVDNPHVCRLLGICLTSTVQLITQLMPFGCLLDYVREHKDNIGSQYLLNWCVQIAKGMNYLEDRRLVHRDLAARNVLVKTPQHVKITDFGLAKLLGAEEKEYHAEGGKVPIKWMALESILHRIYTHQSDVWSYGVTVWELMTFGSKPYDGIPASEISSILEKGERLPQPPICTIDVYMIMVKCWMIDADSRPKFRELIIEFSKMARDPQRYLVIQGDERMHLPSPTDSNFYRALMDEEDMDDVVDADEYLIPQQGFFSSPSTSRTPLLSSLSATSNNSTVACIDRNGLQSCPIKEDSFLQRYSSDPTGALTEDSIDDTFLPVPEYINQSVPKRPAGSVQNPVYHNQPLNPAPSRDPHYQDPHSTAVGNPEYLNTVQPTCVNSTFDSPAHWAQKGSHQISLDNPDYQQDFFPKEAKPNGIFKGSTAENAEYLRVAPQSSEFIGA
test-description: Inhibition of recombinant human EGFR del19/T790M using biotinEEPLYWSFPAKKK-NH2 as substrate incubated for 120 mins by TR-FRET assay
Units before log transform: nM; reported quantity: IC50; transform: log10.

Give a short answer stating reported log10(IC50) for `C=CC(=O)N1CC[C@@H](n2cc(-c3cnc4ccccc4c3)c3c(N)ncnc32)C1` .
-0.40

Give a short answer stating reported log10(IC50) for `C=CC(=O)N1CC[C@H](n2cc(-c3cnc4ccccc4c3)c3c(N)ncnc32)C1` .
2.05

Give a short answer stating reported log10(IC50) for `C=CC(=O)N1CC[C@@H](n2nc(-c3cnc4ccccc4c3)c3c(N)ncnc32)C1` .
0.73

Give a short answer stating reported log10(IC50) for C=CC(=O)N1CCC(n2cc(-c3cnc4ccccc4c3)c3c(N)ncnc32)C1 (racemic) .
0.08

Give a short answer stating reported log10(IC50) for `C=CC(=O)N1CC[C@H](n2nc(-c3cnc4ccccc4c3)c3c(N)ncnc32)C1` .
2.87

====

test-description: Microsomal stability in human liver microsomes assessed as parent compound remaining measured after 30 mins in presence of NADPH generating system by LC-MS analysis
Format: ADME, Microsome
run-conditions: read-out: Stability
observation-type: remaining at 0.5 h (%)
Dear colleague, please return just the value in %, with no unit written.

Give a short answer stating reported remaining at 0.5 h for `C=CC(=O)N1CC(n2nc(C#Cc3cc(OC)cc(OC)c3)c3c(N)ncnc32)C1` .
83

Give a short answer stating reported remaining at 0.5 h for `COc1cc(C#Cc2nn(C3CN(C(=O)/C=C/CN(C)C)C3)c3ncnc(N)c23)cc(OC)c1` .
77

Give a short answer stating reported remaining at 0.5 h for C=CC(=O)N1CC[C@H](n2nc(C#Cc3cc(OC)cc(OC)c3)c3c(N)ncnc32)C1 [FUTIBATINIB] .
66

====

Give measured AUC(0-t) at 6 h for each item. Keep answers brief.
test-description: Drug exposure in BALB/cA mouse assessed as AUC(0 to 6 hrs) of drug at 50 mg/kg, po measured after 6 hrs by LC-MS analysis
Type: ADME, organism-based
Set-up: dose 50 mg/kg, time 6 hrs, route po
run-conditions: in vivo
Dear colleague, please return just the value in µM·h, with no unit written.

Give a short answer stating reported AUC(0-t) at 6 h for `C=CC(=O)N1CC[C@H](n2nc(C#Cc3cc(OC)cc(OC)c3)c3c(N)ncnc32)C1` .
23.9

Give a short answer stating reported AUC(0-t) at 6 h for `C=CC(=O)N1CC(n2nc(C#Cc3cc(OC)cc(OC)c3)c3c(N)ncnc32)C1` .
0.07

Give a short answer stating reported AUC(0-t) at 6 h for `COc1cc(C#Cc2nn(C3CN(C(=O)/C=C/CN(C)C)C3)c3ncnc(N)c23)cc(OC)c1` .
1.27

====

Give measured IC50 for each item. Keep answers brief.
system-name: UniProt:P35968
Sequence (P35968 whole entry): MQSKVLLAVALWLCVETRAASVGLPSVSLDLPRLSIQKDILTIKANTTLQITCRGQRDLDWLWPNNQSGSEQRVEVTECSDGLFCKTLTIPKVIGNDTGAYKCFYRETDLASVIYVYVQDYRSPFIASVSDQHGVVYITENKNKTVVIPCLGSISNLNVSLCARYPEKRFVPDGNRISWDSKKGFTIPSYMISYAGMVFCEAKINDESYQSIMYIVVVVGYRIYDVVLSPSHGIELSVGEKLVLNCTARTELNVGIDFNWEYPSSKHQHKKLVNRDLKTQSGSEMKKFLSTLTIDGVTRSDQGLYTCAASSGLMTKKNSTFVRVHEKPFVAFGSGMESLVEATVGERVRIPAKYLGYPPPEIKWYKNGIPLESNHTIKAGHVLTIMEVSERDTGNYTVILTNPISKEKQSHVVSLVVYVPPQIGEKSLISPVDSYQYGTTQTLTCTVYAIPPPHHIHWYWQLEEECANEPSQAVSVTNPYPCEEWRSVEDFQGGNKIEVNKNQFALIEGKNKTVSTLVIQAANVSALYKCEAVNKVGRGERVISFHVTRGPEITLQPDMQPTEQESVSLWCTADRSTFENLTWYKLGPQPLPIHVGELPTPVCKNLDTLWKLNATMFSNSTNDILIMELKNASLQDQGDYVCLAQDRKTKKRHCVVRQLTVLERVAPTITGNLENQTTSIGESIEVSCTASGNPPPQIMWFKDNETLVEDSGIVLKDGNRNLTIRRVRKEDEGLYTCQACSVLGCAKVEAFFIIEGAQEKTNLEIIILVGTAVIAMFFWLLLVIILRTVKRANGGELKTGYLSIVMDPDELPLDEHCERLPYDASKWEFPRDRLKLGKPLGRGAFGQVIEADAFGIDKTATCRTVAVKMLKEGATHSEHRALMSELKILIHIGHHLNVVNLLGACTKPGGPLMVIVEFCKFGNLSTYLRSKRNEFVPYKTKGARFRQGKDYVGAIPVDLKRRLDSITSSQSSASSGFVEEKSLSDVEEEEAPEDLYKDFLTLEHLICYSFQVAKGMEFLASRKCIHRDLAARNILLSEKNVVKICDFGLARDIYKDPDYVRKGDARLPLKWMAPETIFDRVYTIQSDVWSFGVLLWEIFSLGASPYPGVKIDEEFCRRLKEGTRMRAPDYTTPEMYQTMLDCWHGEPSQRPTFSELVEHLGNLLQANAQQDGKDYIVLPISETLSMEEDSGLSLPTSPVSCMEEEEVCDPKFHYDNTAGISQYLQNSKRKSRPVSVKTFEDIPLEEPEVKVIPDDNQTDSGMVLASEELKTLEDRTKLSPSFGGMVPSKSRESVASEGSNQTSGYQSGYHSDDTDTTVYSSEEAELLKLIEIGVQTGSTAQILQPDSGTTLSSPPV
Number first, unit second.

State the measured IC50 (UniProt:P35968) of `C=CC(=O)N1CC[C@H](n2nc(C#Cc3cc(OC)cc(OC)c3)c3c(N)ncnc32)C1`
2360 nM

State the measured IC50 (UniProt:P35968) of `C=CC(=O)N1CC[C@@H](n2nc(C#Cc3cc(OC)cc(OC)c3)c3c(N)ncnc32)C1`
1490 nM
